The origin of these recorded values is ChEMBL document CHEMBL4811239.

Target: Carbonic anhydrase 1 (Homo sapiens)
Sequence (P00915 whole entry): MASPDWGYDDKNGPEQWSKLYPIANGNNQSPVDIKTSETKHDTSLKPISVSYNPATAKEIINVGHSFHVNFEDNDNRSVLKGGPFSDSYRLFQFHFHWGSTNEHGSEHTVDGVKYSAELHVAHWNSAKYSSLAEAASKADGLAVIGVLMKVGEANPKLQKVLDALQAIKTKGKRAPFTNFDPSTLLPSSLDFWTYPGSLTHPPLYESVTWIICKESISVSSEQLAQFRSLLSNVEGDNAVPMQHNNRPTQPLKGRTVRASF
Experiment: Inhibition of recombinant human CA1 pre-incubated for 15 mins prior to testing by phenol red-based stopped-flow CO2 hydration assay
readout_kind: Ki

[
  {
    "smiles_input": "COc1ccccc1CC1=C(Nc2ccc(S(N)(=O)=O)cc2)C(=O)N(c2ccccc2)C1=O",
    "subject_of_test": "Carbonic anhydrase 1 (Homo sapiens)",
    "readout_kind": "Ki",
    "endpoint_result": "> 10 µM"
  },
  {
    "smiles_input": "Cc1ccc(N2C(=O)C(Cc3ccc(Cl)cc3)=C(Nc3ccc(S(N)(=O)=O)cc3)C2=O)cc1",
    "subject_of_test": "Carbonic anhydrase 1 (Homo sapiens)",
    "readout_kind": "Ki",
    "endpoint_result": "> 10 µM"
  },
  {
    "smiles_input": "Cc1ccc(N2C(=O)C(Cc3ccc(Cl)cc3)=C(Nc3cccc(S(N)(=O)=O)c3)C2=O)cc1",
    "subject_of_test": "Carbonic anhydrase 1 (Homo sapiens)",
    "readout_kind": "Ki",
    "endpoint_result": "> 10 µM"
  }
]
